- system_under_test: AF9-AFF4 interaction (Homo sapiens)
- Construct: cDNA for human AF9 AHD domain (475-568) and ENL AHD domain (489-559) was synthesized
- Sequence (P42568 475-568): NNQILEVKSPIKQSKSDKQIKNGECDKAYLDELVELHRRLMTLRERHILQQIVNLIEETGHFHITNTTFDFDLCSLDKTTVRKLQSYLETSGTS
- experimental_protocol: Alpha assay, AF9-AFF4 interaction
- applied_conditions: read-out: IC50, inhibition of AF9-AFF4 interaction
parameter: IC50 (µM)
Give a bare numeral; the unit µM is implied.

What measured IC50 is associated with `CC(C)(C)c1ccc(-n2cc(C(=O)NC3CCNCC3)nc2-c2ccccc2)cc1` on AF9-AFF4 interaction (Homo sapiens)?
2.5

----------
- system_under_test: ENL-AF4 interaction (Homo sapiens)
- Construct: ENL AHD domain (489-559) was synthesized (by Genscript) and inserted into the pMAL c5X expression plasmid; made in house; host or cells: E. coli BL21(DE3)
- Sequence (Q03111 489-559): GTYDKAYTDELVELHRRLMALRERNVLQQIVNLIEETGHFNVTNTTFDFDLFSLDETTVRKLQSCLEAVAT
- experimental_protocol: Alpha assay, ENL-AF4 interaction
- Type: binding
- applied_conditions: read-out: IC50, inhibition of ENL-AF4 interaction
No end group written: not given here.
parameter: IC50 (µM)
Give a bare numeral; the unit µM is implied.

Given the sequence NKLPVSIPLASVVLPSRAERARST [DOT1L] , what is its reported IC50?
13.2

----------
- Tested on: MDA-MB-231 cells
- experimental_protocol: Antiproliferation assay (MTT)
- Format: cell-based
- applied_conditions: Homo sapiens, 168 h, 7-day incubation, read-out: Cytotoxicity EC50
parameter: pEC50
Reminder that pEC50 is minus the log10 of a molar concentration.

Given the compound `CC(C)(C)c1ccc(-n2cc(C(=O)NC3CCNCC3)nc2-c2ccccc2)cc1` , what is its reported pEC50?
4.87

----------
- system_under_test: AF9-AF4 interaction (Homo sapiens, UniProt P42568)
- Construct: cDNA for human AF9 AHD domain (475-568) and ENL AHD domain (489-559) was synthesized
- Sequence (P42568 475-568): as the sequence (P42568 475-568) above
- experimental_protocol: Alpha assay, AF9-AF4 interaction
- applied_conditions: read-out: IC50, inhibition of AF9-AF4 interaction
parameter: pIC50
Reminder that pIC50 is minus the log10 of a molar concentration.

What measured pIC50 is associated with CC(C)(C)c1ccc(-n2cc(C(=O)NC3CCNCC3)nc2-c2ccccc2)cc1 [Compound 1] on AF9-AF4 interaction (Homo sapiens, UniProt P42568)?
5.82

----------
- Tested on: cancer cells
- experimental_protocol: Antiproliferation assays, cancer cell panel
- Assay type: cell-based
- applied_conditions: 168 h, MLL-r leukemia (MV4;11, Molm-13, THP-1) and Myc-driven blood cancer cells; 7 days; read-out: EC50 against proliferation (range)
parameter: EC50

What measured EC50 is associated with `CC(C)(C)c1ccc(-n2cc(C(=O)NC3CCNCC3)nc2-c2ccccc2)cc1` on cancer cells?
3 to 11 µM

----------
- system_under_test: ENL-AFF4 interaction (Homo sapiens)
- Construct: ENL AHD domain (489-559) was synthesized (by Genscript) and inserted into the pMAL c5X expression plasmid
- Sequence (Q03111 489-559): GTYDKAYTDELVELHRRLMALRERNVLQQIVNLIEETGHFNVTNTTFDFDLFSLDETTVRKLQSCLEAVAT
- experimental_protocol: Alpha assay, ENL-AFF4 interaction
- applied_conditions: read-out: IC50, inhibition of ENL-AFF4 interaction
parameter: pIC50
Reminder that pIC50 is minus the log10 of a molar concentration.

Given the compound `CC(C)(C)c1ccc(-n2cc(C(=O)NC3CCNCC3)nc2-c2ccccc2)cc1` , what is its reported pIC50?
5.48
